# study.system: T1, IL-10R1-Fc (UniProt Q13651 22-235, limits assumed)
# T1 sequence (looked up): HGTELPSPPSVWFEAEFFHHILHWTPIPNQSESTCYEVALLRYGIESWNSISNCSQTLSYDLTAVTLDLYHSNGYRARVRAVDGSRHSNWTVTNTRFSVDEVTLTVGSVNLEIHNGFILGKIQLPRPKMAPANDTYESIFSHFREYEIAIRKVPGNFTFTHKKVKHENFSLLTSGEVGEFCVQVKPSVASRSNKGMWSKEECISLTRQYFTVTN
# assay.text: ELISA, IL-10R1-Fc coated
outcome.measure: Binding recovery (>60%)
Form entry: value (%) — number only.

Consider the following illustrative entries.
IL-10 Met140Cys-R4-1 (ligand, human, UniProt P22301 19-178, looked up, R4-1 on Cys 140, mature) SPGQGTQSENSCTHFPGNLPNMLRDLRDAFSRVKTFFQMKDQLDNLLLKESLLEDFKGYLGCQALSEMIQFYLEEVMPQAENQDPDIKAHVNSLGENLKTLRLRLRRCHRFLPCENKSKAVEQVKNAFNKLQEKGIYKACSEFDIFINYIEAYMTMKIRN : 89
IL-10 Lys138Cys-R4-7 (ligand, human, UniProt P22301 19-178, looked up, R4-7 on Cys 138, mature) SPGQGTQSENSCTHFPGNLPNMLRDLRDAFSRVKTFFQMKDQLDNLLLKESLLEDFKGYLGCQALSEMIQFYLEEVMPQAENQDPDIKAHVNSLGENLKTLRLRLRRCHRFLPCENKSKAVEQVKNAFNKLQEKGIYCAMSEFDIFINYIEAYMTMKIRN : 97.6

So what does the record say about Binding recovery (>60%) for IL-10 Asn148Cys-R4-18 (ligand, human, UniProt P22301 19-178, looked up, R4-18 (printed R418) on Cys 148, mature) SPGQGTQSENSCTHFPGNLPNMLRDLRDAFSRVKTFFQMKDQLDNLLLKESLLEDFKGYLGCQALSEMIQFYLEEVMPQAENQDPDIKAHVNSLGENLKTLRLRLRRCHRFLPCENKSKAVEQVKNAFNKLQEKGIYKAMSEFDIFICYIEAYMTMKIRN ?
84.3

Entry IL-10 Lys49Cys-R4-5 (ligand, human, UniProt P22301 19-178, looked up, R4-5 on Cys 49, mature) SPGQGTQSENSCTHFPGNLPNMLRDLRDAFSRVKTFFQMKDQLDNLLLCESLLEDFKGYLGCQALSEMIQFYLEEVMPQAENQDPDIKAHVNSLGENLKTLRLRLRRCHRFLPCENKSKAVEQVKNAFNKLQEKGIYKAMSEFDIFINYIEAYMTMKIRN : reported Binding recovery (>60%) = ?
114

Requested field: Binding recovery (>60%). Item: IL-10 Asn97Cys-R4-18 (ligand, human, UniProt P22301 19-178, looked up, R4-18 on Cys 97, mature) SPGQGTQSENSCTHFPGNLPNMLRDLRDAFSRVKTFFQMKDQLDNLLLKESLLEDFKGYLGCQALSEMIQFYLEEVMPQAENQDPDIKAHVNSLGECLKTLRLRLRRCHRFLPCENKSKAVEQVKNAFNKLQEKGIYKAMSEFDIFINYIEAYMTMKIRN
94.5

So what does the record say about Binding recovery (>60%) for IL-10 Phe30Cys-R4-8 (ligand, human, UniProt P22301 19-178, looked up, R4-8 on Cys 30, mature) SPGQGTQSENSCTHFPGNLPNMLRDLRDACSRVKTFFQMKDQLDNLLLKESLLEDFKGYLGCQALSEMIQFYLEEVMPQAENQDPDIKAHVNSLGENLKTLRLRLRRCHRFLPCENKSKAVEQVKNAFNKLQEKGIYKAMSEFDIFINYIEAYMTMKIRN ?
97.1

Please report the recorded Binding recovery (>60%) for IL-10 Arg107Cys-R4-20 (ligand, human, UniProt P22301 19-178, looked up, R4-20 on Cys 107, mature) SPGQGTQSENSCTHFPGNLPNMLRDLRDAFSRVKTFFQMKDQLDNLLLKESLLEDFKGYLGCQALSEMIQFYLEEVMPQAENQDPDIKAHVNSLGENLKTLRLRLRCCHRFLPCENKSKAVEQVKNAFNKLQEKGIYKAMSEFDIFINYIEAYMTMKIRN .
99.5

Recorded Binding recovery (>60%) for IL-10 Tyr72Cys-R4-4 (ligand, human, UniProt P22301 19-178, looked up, R4-4 on Cys 72, mature) SPGQGTQSENSCTHFPGNLPNMLRDLRDAFSRVKTFFQMKDQLDNLLLKESLLEDFKGYLGCQALSEMIQFCLEEVMPQAENQDPDIKAHVNSLGENLKTLRLRLRRCHRFLPCENKSKAVEQVKNAFNKLQEKGIYKAMSEFDIFINYIEAYMTMKIRN , please?
109

Reported Binding recovery (>60%) for IL-10 Leu131Cys-R4-6 (ligand, human, UniProt P22301 19-178, looked up, R4-6 on Cys 131, mature) SPGQGTQSENSCTHFPGNLPNMLRDLRDAFSRVKTFFQMKDQLDNLLLKESLLEDFKGYLGCQALSEMIQFYLEEVMPQAENQDPDIKAHVNSLGENLKTLRLRLRRCHRFLPCENKSKAVEQVKNAFNKCQEKGIYKAMSEFDIFINYIEAYMTMKIRN : what is it?
98.5

Entry under review: IL-10 Tyr149Cys-R4-4 (ligand, human, UniProt P22301 19-178, looked up, R4-4 on Cys 149, mature) SPGQGTQSENSCTHFPGNLPNMLRDLRDAFSRVKTFFQMKDQLDNLLLKESLLEDFKGYLGCQALSEMIQFYLEEVMPQAENQDPDIKAHVNSLGENLKTLRLRLRRCHRFLPCENKSKAVEQVKNAFNKLQEKGIYKAMSEFDIFINCIEAYMTMKIRN . Reported Binding recovery (>60%)?
115
